- assayMethodText: Lipophilicity, log D of compound at 7.4 by LC-MS analysis
- Assay type: physicochemical
- cond: pH 7.4
measurementKind: logD

See these solved cases before continuing.
[
  {
    "compound": "FC(F)(F)c1nccc(N[C@@H]2CC[C@H](Nc3ccc4nnc(Cl)n4n3)C2)n1 (racemic)",
    "measurementKind": "logD",
    "experimentalValue": 3.4
  },
  {
    "compound": "FC(F)(F)c1nccc(N[C@H]2CC[C@@H](Nc3ccc4nnc(C5CC5)n4n3)CC2)n1",
    "measurementKind": "logD",
    "experimentalValue": 4.5
  },
  {
    "compound": "Cc1nnc2ccc(N[C@H]3CC[C@@H](Nc4ccnc(C(F)(F)F)n4)CC3)nn12",
    "measurementKind": "logD",
    "experimentalValue": 2.3
  },
  {
    "compound": "CSc1nnc2ccc(N[C@H]3CC[C@@H](Nc4ccnc(C(F)(F)F)n4)CC3)nn12",
    "measurementKind": "logD",
    "experimentalValue": 2.8
  },
  {
    "compound": "FC(F)(F)c1nccc(N2CCC(CNc3ccc4nnc(Cl)n4n3)CC2)n1",
    "measurementKind": "logD",
    "experimentalValue": 2.8
  },
  {
    "compound": "CN(c1ccc2nnc(Cl)n2n1)[C@H]1CC[C@@H](Nc2ccnc(C(F)(F)F)n2)CC1",
    "measurementKind": "logD",
    "experimentalValue": 3.5
  }
]

(1) Clc1nnc2ccc(N[C@H]3CC[C@@H](Nc4ccncn4)CC3)nn12
(2) COc1ncc(N[C@H]2CC[C@@H](Nc3ccc4nnc(Cl)n4n3)CC2)cc1Cl
Hi, I'm comparing 1 with 2 and wondering which one has the bigger number for logD. Any idea? Please indicate the selected item by its label.
2

====

- assayMethodText: Metabolic stability in human liver microsomes assessed as intrinsic clearance by LC-MS/MS analysis
- Assay type: ADME, Microsome
- cond: read-out: CLH
measurementKind: microsomal CLint (µL/min/mg)

See these solved cases before continuing.
[
  {
    "mol": "FC(F)(F)c1nccc(N[C@H]2C[C@@H](CNc3ccc4nnc(Cl)n4n3)C2)n1",
    "scaleUnit": "µL/min/mg",
    "microsomal CLint": 36
  },
  {
    "mol": "FC(F)(F)c1nccc(N[C@H]2CC[C@@H](Nc3ccncn3)CC2)n1",
    "scaleUnit": "µL/min/mg",
    "microsomal CLint": 18
  },
  {
    "mol": "CSc1nnc2ccc(N[C@H]3CC[C@@H](Nc4ccnc(C(F)(F)F)n4)CC3)nn12",
    "scaleUnit": "µL/min/mg",
    "microsomal CLint": 29
  },
  {
    "mol": "FC(F)(F)c1cccc(N[C@H]2CC[C@@H](Nc3ccc4nnc(Cl)n4n3)CC2)c1",
    "scaleUnit": "µL/min/mg",
    "microsomal CLint": 9.2
  },
  {
    "mol": "CN(c1ccnc(C(F)(F)F)n1)[C@H]1CC[C@@H](Nc2ccc3nnc(Cl)n3n2)CC1",
    "scaleUnit": "µL/min/mg",
    "microsomal CLint": 18
  },
  {
    "mol": "FC(F)(F)c1nccc(N[C@]23CC[C@](Nc4ccc5nnc(Cl)n5n4)(CC2)CC3)n1",
    "scaleUnit": "µL/min/mg",
    "microsomal CLint": 11
  },
  {
    "mol": "FC(F)(F)c1nccc(N[C@H]2C[C@@H](Nc3ccc4nnc(Cl)n4n3)C2)n1",
    "scaleUnit": "µL/min/mg",
    "microsomal CLint": 6.9
  },
  {
    "mol": "FC(F)(F)c1nccc(N[C@H]2CC[C@@H](Nc3ccc4cnccc4n3)CC2)n1",
    "scaleUnit": "µL/min/mg",
    "microsomal CLint": 26
  },
  {
    "mol": "FC(F)(F)c1nccc(NC[C@H]2C[C@@H](Nc3ccc4nnc(Cl)n4n3)C2)n1",
    "scaleUnit": "µL/min/mg",
    "microsomal CLint": 23
  },
  {
    "mol": "CN(c1ccc2nnc(Cl)n2n1)[C@H]1CC[C@@H](Nc2ccnc(C(F)(F)F)n2)CC1",
    "scaleUnit": "µL/min/mg",
    "microsomal CLint": 12
  }
]

(A) FC(F)(F)c1cc(N[C@H]2CC[C@@H](Nc3ccc4nnc(Cl)n4n3)CC2)ccn1
(B) FC(F)(F)c1nccc(N2CCC(Nc3ccc4nnc(Cl)n4n3)CC2)n1
(C) FC(F)(F)c1cccc(N[C@H]2CC[C@@H](Nc3ccnc(C(F)(F)F)n3)CC2)c1
(D) FC(F)(F)c1nccc(N[C@H]2CC[C@@H](Nc3ncnc4sccc34)CC2)n1
(E) FC(F)(F)c1nccc(N[C@H]2CC[C@@H](Nc3cnc4ccccc4c3)CC2)n1
Sort the 5 molecules by microsomal CLint; largest first, smallest last. Returns: the labels listed in the requested order.
B, D, A, C, E
